one-hybrid fitness for binding NBS DNA reference
B1: Caulobacter ParB omega fusion; a variant is named by its letters at X, in order, B8GW30 (parent)
chain: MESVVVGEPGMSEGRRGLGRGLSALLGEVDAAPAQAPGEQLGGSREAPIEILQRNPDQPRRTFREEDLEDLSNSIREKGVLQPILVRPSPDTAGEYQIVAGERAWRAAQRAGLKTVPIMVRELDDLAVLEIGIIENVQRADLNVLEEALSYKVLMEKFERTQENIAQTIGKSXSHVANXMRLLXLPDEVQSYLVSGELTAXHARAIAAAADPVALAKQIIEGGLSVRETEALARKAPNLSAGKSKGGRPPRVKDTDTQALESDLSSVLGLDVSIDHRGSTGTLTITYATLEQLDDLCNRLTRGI

variants of: B1; experiment: one-hybrid fitness for binding NBS DNA (the Noc-binding site; scaled: cognate 1, non-cognate 0); higher = stronger binding; conditions: with NBS DNA site
The full ranking holds about 81,000 sequences; the median of “one-hybrid fitness for binding NBS DNA” is about -0.1, and the highest 2% start at about 0.36. The full list was thinned out, with the highest values kept by preference.

These solved cases illustrate the format of a correct answer.
[
  {
    "MUTATIONS": "QQFG",
    "one-hybrid fitness for binding NBS DNA": "≤ 0.2"
  },
  {
    "MUTATIONS": "FHTT",
    "one-hybrid fitness for binding NBS DNA": "≤ 0.2"
  },
  {
    "MUTATIONS": "QTDC",
    "one-hybrid fitness for binding NBS DNA": "≤ 0.2"
  },
  {
    "MUTATIONS": "ATQS",
    "one-hybrid fitness for binding NBS DNA": "≤ 0.2"
  },
  {
    "MUTATIONS": "PSRF",
    "one-hybrid fitness for binding NBS DNA": "≤ 0.2"
  }
]

Sample QSCM — what was its one-hybrid fitness for binding NBS DNA? ≤ 0.2

Sample QMGN — what was its one-hybrid fitness for binding NBS DNA? ≤ 0.2

Sample RGWG — what was its one-hybrid fitness for binding NBS DNA? ≤ 0.2

Sample ETHC — what was its one-hybrid fitness for binding NBS DNA? ≤ 0.2

Sample QQVC — what was its one-hybrid fitness for binding NBS DNA? ≤ 0.2

Sample QRCE — what was its one-hybrid fitness for binding NBS DNA? 0.223
